TARGET_UNDER_TEST: T1, AAV5
T1 construct: also called adeno-associated virus serotype 5
ASSAY_PROTOCOL: SPR, AAV on CM5 chip;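 further: surface plasmon resonance with AAV amine-coupled to the chip as ligand, nanobodies injected as analyte over a concentration series, rate constants and affinity fitted from binding curves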
pKd: −log10 of the molar value.
binders and their reported pKd

>  <BINDER>
A4-037 (VHH) VHH: VQLQESGGGLVQPGGSLRLSCAASGSIFSINTMGWYRQAPGKQRELVATVTRGGSTNYAGSVKGRFTISRDNAKNTVYLQMNSLRPEDTAVYYCHLDEVRQSSWTTSNIWGQGTQVTVSS

>  <pKd>
9.06

$$$$
>  <BINDER>
A4-009 (VHH) VHH: VQLQESGGGLAQPGGSLRLSCAASGSRFSINTMGWYRQAPGKQREFVAAVTRGGSTNYAGSVKGRFTISRDNAKNTVYLQMNTLRPEDTAVYYCHVDEVRQSSWTTSNIWGQGTQVTVSS

>  <pKd>
6.85

$$$$
